System: MS2 coat protein
EXPERIMENT_NOTES: apparent KD of MS2 coat protein; designed switch direction (-1 OFF switch, 1 ON switch): -1; higher = weaker reporter binding
SETUP_CONDITIONS: input ligand: none
Form field: apparent KD of MS2 coat protein (one value per entry).
The answer is to be given in nM; state only the numeric part.

Answered examples (5):
QUERY_SEQUENCE	MEASUREMENT_TARGET	apparent KD of MS2 coat protein [nM]
GUCAGCUCGUGAGGAUAUAUAUACAUGAGGAUCACCCAUGUAAGAUCAGGCUUCGGCCAAUGUAUAUAGAAGGCACGAGCUGAC [ENG2/11-A1] (Eterna round: R96, puzzle: Exclusion NG 2)	MS2 coat protein	636
GGACAUAAAGUCAGGAUAUUAAUGCGAACAAGCGAUGAGAAGGGACAUGAGGAUCACCCAUGUGAUUCUCAUCA [Edvebe] (Eterna round: R97, puzzle: Brourd's mod of Exclusion 4)	MS2 coat protein	16.5
ACUGGUCGAGGAUAUACAUGAGGAUCACCCAUGUUGAUCAACUGCCGAUAGGCAGAAUGUAGAAGGCGACCAGU [E3/7-A2] (Eterna round: R97, puzzle: Exclusion 3)	MS2 coat protein	942
CCGAAAUCCUAGGAUAUGCUAGACGAAAGUCUAGCAGAAGGAGGAACAUGAGGAUCACCCAUGUGUCCUAUCGG [Mat - Exclusion 6 - Eli Mod - D30] (Eterna round: R97, puzzle: Exclusion 6)	MS2 coat protein	15.8
AUAAAGCAAGCAUGGUCCCACAUGAGGAUCACCCAUGUGUUCGUCUUAUAGGCUGCUGUGGCUUUUGCCUCGUUGGC [LRO Sensor-off var1-09 loose mod of D91 from Mat747] (Eterna round: R97, puzzle: Sensor, turn-off variant 1)	MS2 coat protein	46

Query :: Using the record for GGCCUGUUAGGAUAUUAGUAGUAGUCAGAAAAGACUAUUACUGAGAAGGAACAUGAGGAUCACCCAUGUUGGCC [Mat - Exclusion 4 - Eli Mod - D39] (Eterna round: R97, puzzle: Exclusion 4) , report its apparent KD of MS2 coat protein.
Result :: 17.4

Query :: Using the record for GGAUCGAGUGUGAGGAUAUACCUAUGGAAACAUAGGUAGAAGGCACAUGAGGAUCACCCAUGUGUUCCCGGUCC [Mat - Exclusion 4 - Eli Mod - D16] (Eterna round: R97, puzzle: Brourd's mod of Exclusion 4) , report its apparent KD of MS2 coat protein.
Result :: 50.8

Query :: Using the record for AAAACGGACCGAGGAUAUACACGAUAUCUUUGCGUAGAAGGCGGACCGGCGACUUGAGGAUCACCCAAGUGUCCUCUUUUGCGG [Mutated MS2 EX1.4] (Eterna round: R96, puzzle: Exclusion NG 1) , report its apparent KD of MS2 coat protein.
Result :: 175

Query :: Using the record for ACAUGAGGAUCACCCAUGUCCGGCUGGUCCGUCUCGGCUGUCGAGGAUAUGGCUCGGUGUCCGCGCUAGAAGGUGGGAGCCGGA [Aenatbe mod 75] (Eterna round: R96, puzzle: Exclusion NG 3) , report its apparent KD of MS2 coat protein.
Result :: 93.5

* * *

Tested on: MS2 coat protein
EXPERIMENT_NOTES: apparent KD of MS2 coat protein, switch OFF state (with FMN for OFF switches, without FMN for ON switches); designed switch direction (-1 OFF switch, 1 ON switch): -1; higher = weaker reporter binding
SETUP_CONDITIONS: FMN input: 0 or 200 uM; Eterna round: R93 (includes R88 designs)
Classify as follows. Reported apparent KD of MS2 coat protein greater than or equal to 70 nM: Satisfied. Reported apparent KD of MS2 coat protein below: Not satisfied.

QUERY_SEQUENCE	MEASUREMENT_TARGET	QUALITATIVE_LABEL
AACUGUACAGGAUAUACAUGAGGAUCACCCAUGUGAGAAUUAAGUGGAAAACCACAAAGUAGAAGGGUACAGGA [Mat - Exclusion 3 - JL mod - D18]	MS2 coat protein	Satisfied

Query :: State whether the measured apparent KD of MS2 coat protein reaches 70 nM, counting equality as reaching it, for AAGAAACGAGGAUAUACAUGAGGAUCACCCAUGUAAAAGAAAGAAAAGGGAAAGAAAAGUAGAAGGCGUAAGAA [Usermaatre-sekheperenre Ramesses V]
Result :: Not satisfied

Query :: State whether the measured apparent KD of MS2 coat protein reaches 70 nM, counting equality as reaching it, for AAAAAGUGAGGAUAUGUCAAAGGUCACGAAAGUGACAAAGGACAGAAGGCACAUGAGGAUCACCCAUGUGGGAA [Fiskers Exclusion 4D1 65% - Early + late G segment 1]
Result :: Satisfied

Query :: State whether the measured apparent KD of MS2 coat protein reaches 70 nM, counting equality as reaching it, for AAGAAGUCAGGAUAUGCUGCUCGUCACUUGCGUGAUGAGUAGCAGAAGGGACAUGAGGAUCACCCAUGUAAAGA [Opal 14]
Result :: Not satisfied

Just for reference, the supplement of paper PMC9170038 is where these values come from.
